# test_details: folding enthalpy; higher = less favourable; fluorescence melt of hairpins on a sequencing array, two-state fit
# condition_parameters: sodium 0.088 M
test_readout: folding enthalpy

Problem: Any idea what folding enthalpy was measured for GTTTACCGAAAGGTTAAC (((.(((....))).))) ?
Result: -24.9 kcal/mol

Problem: Now try GCGGAGCGAAAGCACAGC ((.(.((....)).).)) .
Result: -17.4 kcal/mol

Problem: What do you have for GATCGATTCATCGATC ((((((....)))))) ?
Result: -39.9 kcal/mol

Problem: Consider next the sequence GTGATCGAAAGATTGCAC ((((((....)))..))) in the same way.
Result: -14.5 kcal/mol

Problem: Also check GTGTGGGGAAACTCGCAC (((.(.(....).).)))
Result: -29.9 kcal/mol

Problem: Also GATAGACGAAAGTCCATC (((.(((....))).))) , if possible.
Result: -13.3 kcal/mol
